Molecular target: T1, cynomolgus BLyS (full length, arginine to histidine at position 132) on CHO-K1 cells (cynomolgus, UniProt Q9Y275 1-285 (human entry))
T1 construct: also called cyno BLyS; CHO-K1 cynoBLyS
T1 chain: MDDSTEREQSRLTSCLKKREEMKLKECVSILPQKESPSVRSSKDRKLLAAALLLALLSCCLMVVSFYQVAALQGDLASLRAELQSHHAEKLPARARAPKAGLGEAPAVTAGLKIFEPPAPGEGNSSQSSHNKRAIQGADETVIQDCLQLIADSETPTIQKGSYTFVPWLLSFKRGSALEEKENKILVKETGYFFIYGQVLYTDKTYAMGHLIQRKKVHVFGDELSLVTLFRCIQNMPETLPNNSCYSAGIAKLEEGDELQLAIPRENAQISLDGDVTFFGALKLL
Experiment: flow cytometry, CHO-K1 cynoBLyS cells, antibody 0.00427 nM
Measured MFI accompanies every entry in the list below.
Answer with the number, then the unit.

>  <binder>
111D10D6G3 (antibody, V domains shown, Mouse hybridoma monoclonal antibody purified on Protein G) VH: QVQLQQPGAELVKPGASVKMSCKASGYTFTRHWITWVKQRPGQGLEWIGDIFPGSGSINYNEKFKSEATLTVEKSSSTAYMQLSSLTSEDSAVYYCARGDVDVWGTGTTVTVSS VL: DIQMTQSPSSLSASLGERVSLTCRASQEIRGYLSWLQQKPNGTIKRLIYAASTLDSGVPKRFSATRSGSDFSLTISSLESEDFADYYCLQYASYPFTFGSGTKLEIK

>  <experimental.result>
38.8 MFI

$$$$
>  <binder>
93C6F10D3 (antibody, V domains shown, Mouse hybridoma monoclonal antibody purified on Protein G) VH: EVQLVESGGGLVTPGGSLKLSCVASGFAFSTYGMSWVRQTPERRLEWVAYISGGGGSIYYPDSVKGRFTISRDNAKNILYLQMSSLKSEDTAMYHCTRHPDLLLRYDYALDHWGQGTSVTVSS VL: DIQMTQSPASLSASVGETVTITCRASENIHIYLAWYQQKQGKSPQLLVYNGKTLADGVPSRFSGSGSGTQYSLKINTLQPEDFGNYYCQHFWNSTWTFGGGTKLEIK

>  <experimental.result>
46.9 MFI

$$$$
>  <binder>
89A2G5E7 (antibody, V domains shown, Mouse hybridoma monoclonal antibody purified on Protein G) VH: QVQLKESGPGLVAPSQSLSITCTVSGLSLNSHDISWIRQPPGKGLEWLGVIWSGGGTKYNSAFMSRLSISKDNSKSQVFLKMNSLHTDDTAIYYCVRTPSMITYSAMDYWGQGTSVTVSS VL: EIVLTQSPALMAASPGEKVTITCSVSSSISSRNLHWYQQKSQTSPKAWIHATSNLASGVPVRFSGSGSGTSYSLTISSMEAEDAATYYCQQWSSYPLTFGSGTKLEIK

>  <experimental.result>
32.1 MFI

$$$$

# input Give the reported value of MFI for this record: 20D1B6E9E5 (antibody, V domains shown, Mouse hybridoma monoclonal antibody purified on Protein G) VH: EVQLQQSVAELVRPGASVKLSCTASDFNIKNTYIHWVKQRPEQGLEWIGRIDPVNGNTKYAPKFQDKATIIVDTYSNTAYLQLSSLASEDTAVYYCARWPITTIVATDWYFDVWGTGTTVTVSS VL: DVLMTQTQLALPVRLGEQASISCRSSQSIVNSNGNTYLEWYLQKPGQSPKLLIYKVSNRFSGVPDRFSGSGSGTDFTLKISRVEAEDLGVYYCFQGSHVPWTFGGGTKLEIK
# output 50.4 MFI

# input Give the reported value of MFI for this record: 97A3C2H4 (antibody, V domains shown, Mouse hybridoma monoclonal antibody purified on Protein G) VH: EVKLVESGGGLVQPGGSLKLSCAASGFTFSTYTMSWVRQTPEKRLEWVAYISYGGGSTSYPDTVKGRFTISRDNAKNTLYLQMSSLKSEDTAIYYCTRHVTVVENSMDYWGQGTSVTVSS VL: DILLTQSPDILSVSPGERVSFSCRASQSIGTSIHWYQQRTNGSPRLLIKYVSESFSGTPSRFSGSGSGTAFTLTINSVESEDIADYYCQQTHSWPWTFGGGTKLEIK
# output 44.3 MFI

Data credit: patent US20210347873A1
